The origin of these recorded values is ChEMBL document CHEMBL1136520.

- system.name: UniProt:P08908
- test.summary: Maximal response as a result of 5-hydroxytryptamine 1A receptor-mediated stimulation of [35S]GTP-gamma-S, binding
- Assay type: functional
assay.readout: Emax (%)

- chemical.structure: "Cc1cc2c(OC[C@@H](O)CN3CCC(c4cc5c(F)cccc5s4)CC3)cccc2[nH]1"
  system.name: "UniProt:P08908"
  reported.result: 11.6

[1] O[C@H](COc1cccc2[nH]ccc12)CN1CCC(c2cc3ccc(F)cc3s2)CC1
[2] COc1cccc2sc(C3CCN(C[C@H](O)COc4cccc5[nH]ccc45)CC3)cc12
Given the two records 1 and 2 , choose the one whose Emax value is lower. Answer = label.
2

----------
- system.name: Sodium-dependent serotonin transporter (Rattus norvegicus, UniProt P31652)
- Sequence (P31652 whole entry): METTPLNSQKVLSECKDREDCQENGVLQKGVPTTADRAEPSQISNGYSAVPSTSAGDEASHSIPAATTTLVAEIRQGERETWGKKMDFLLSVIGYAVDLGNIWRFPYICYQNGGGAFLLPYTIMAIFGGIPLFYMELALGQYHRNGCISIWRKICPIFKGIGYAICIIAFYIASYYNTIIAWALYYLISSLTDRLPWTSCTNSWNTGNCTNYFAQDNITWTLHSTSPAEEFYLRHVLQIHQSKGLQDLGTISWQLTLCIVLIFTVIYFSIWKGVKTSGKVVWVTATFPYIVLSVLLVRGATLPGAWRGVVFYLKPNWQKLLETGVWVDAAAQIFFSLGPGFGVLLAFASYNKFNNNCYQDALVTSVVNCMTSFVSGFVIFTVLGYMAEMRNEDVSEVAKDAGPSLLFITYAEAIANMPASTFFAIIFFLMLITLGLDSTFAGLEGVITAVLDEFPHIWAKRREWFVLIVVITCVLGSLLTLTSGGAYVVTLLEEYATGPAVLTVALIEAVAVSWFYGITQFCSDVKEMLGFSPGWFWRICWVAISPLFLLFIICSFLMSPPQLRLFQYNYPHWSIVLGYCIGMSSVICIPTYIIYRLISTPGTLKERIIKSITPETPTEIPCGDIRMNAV
- test.summary: Binding affinity towards serotonin [5-HT] reuptake site labeled with [3H]paroxetine as radioligand
pKi: −log10 of the molar value.
assay.readout: pKi

- chemical.structure: "O[C@H](COc1cccc2[nH]ccc12)CN1CCC(c2cc3ccccc3s2)CC1"
  system.name: "Sodium-dependent serotonin transporter (Rattus norvegicus, UniProt P31652)"
  pKi: 7.78
- chemical.structure: "Oc1cccc2cc(C3CCN(C[C@H](O)COc4cccc5[nH]ccc45)CC3)sc12"
  system.name: "Sodium-dependent serotonin transporter (Rattus norvegicus, UniProt P31652)"
  pKi: 7.43
- chemical.structure: "Cc1cc2c(OC[C@@H](O)CN3CCC(c4cc5c(C)cccc5s4)CC3)cccc2[nH]1"
  system.name: "Sodium-dependent serotonin transporter (Rattus norvegicus, UniProt P31652)"
  pKi: 7.76

[I] O[C@H](COc1cccc2[nH]ccc12)CN1CCC(c2cc3ccc(F)cc3s2)CC1
[II] Cc1cccc2sc(C3CCN(C[C@H](O)COc4cccc5[nH]ccc45)CC3)cc12
Could you tell me which of I and II has the lower pKi reading? Reply briefly: the label of your chosen item.
II
(II: 8.43, I: 8.70)

[I] Cc1cc2c(OC[C@@H](O)CN3CCC(c4cc5cc(F)ccc5s4)CC3)cccc2[nH]1
[II] O[C@H](COc1cccc2[nH]ccc12)CN1CCC(c2cc3cc(F)ccc3s2)CC1
[III] Cc1cc2c(OC[C@@H](O)CN3CCC(c4cc5c(F)cccc5s4)CC3)cccc2[nH]1
[IV] O[C@H](COc1cccc2[nH]ccc12)CN1CCC(c2cc3cc(Cl)ccc3s2)CC1
Put the items in order so that reported pKi rises from first to last. Return the labels ranked in the requested order, please.
IV, III, II, I

[I] Cc1cc2c(OC[C@@H](O)CN3CCC(c4cc5ccc(F)cc5s4)CC3)cccc2[nH]1
[II] Cc1cc(C)c2cc(C3CCN(C[C@H](O)COc4cccc5[nH]c(C)cc45)CC3)sc2c1
[III] Cc1c(C2CCN(C[C@H](O)COc3cccc4[nH]ccc34)CC2)sc2ccccc12
Task for the reader: rank each entry by its pKi, from the minimum upward. Thanks in advance for listing the labels in the requested order.
II, III, I
(II: 7.28, III: 7.62, I: 7.95)

[1] O[C@H](COc1cccc2[nH]ccc12)CN1CCC(c2cc3ccc(Cl)cc3s2)CC1
[2] Cc1ccc2cc(C3CCN(C[C@H](O)COc4cccc5[nH]ccc45)CC3)sc2c1
Pick one, 1 or 2 : lowest reported pKi. Returns: label corresponding to the selected item.
2
(2: 7.30, 1: 7.86)

----------
- system.name: Sodium-dependent serotonin transporter (Rattus norvegicus, UniProt P31652)
- test.summary: Binding affinity towards Serotonin transporter labeled with [3H]paroxetine as radioligand
assay.readout: Ki (nM)

- chemical.structure: "COc1cccc2cc(C3CCN(C[C@H](O)COc4cccc5[nH]ccc45)CC3)sc12"
  reported.result: 94.3
- chemical.structure: "COc1ccc2cc(C3CCN(C[C@H](O)COc4cccc5[nH]ccc45)CC3)sc2c1"
  reported.result: 68.7

----------
- system.name: 5-hydroxytryptamine receptor 1A (Homo sapiens)
- Sequence (P08908 whole entry): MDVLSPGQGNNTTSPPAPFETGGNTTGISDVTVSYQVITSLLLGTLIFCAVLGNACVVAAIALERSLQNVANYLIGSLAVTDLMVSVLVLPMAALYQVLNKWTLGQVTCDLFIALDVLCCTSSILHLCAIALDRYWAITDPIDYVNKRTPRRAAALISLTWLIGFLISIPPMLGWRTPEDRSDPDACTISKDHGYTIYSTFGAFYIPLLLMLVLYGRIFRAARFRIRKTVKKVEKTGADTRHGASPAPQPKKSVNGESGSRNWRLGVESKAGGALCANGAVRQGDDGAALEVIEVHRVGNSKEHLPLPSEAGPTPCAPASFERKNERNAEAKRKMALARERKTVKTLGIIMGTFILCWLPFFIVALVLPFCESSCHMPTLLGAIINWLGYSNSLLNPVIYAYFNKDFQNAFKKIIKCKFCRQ
- test.summary: Binding affinity was determined towards 5-hydroxytryptamine 1A receptor using [3H]8-OH-DPAT as radioligand
assay.readout: Ki (nM)

Sample records with Ki:
- chemical.structure: "Cc1cc(C)c2cc(C3CCN(C[C@H](O)COc4cccc5[nH]c(C)cc45)CC3)sc2c1"
  assay.readout: "Ki"
  reported.result: 27.8
- chemical.structure: "Cc1ccc2cc(C3CCN(C[C@H](O)COc4cccc5[nH]c(C)cc45)CC3)sc2c1"
  assay.readout: "Ki"
  reported.result: 22.6
- chemical.structure: "Cc1c(C2CCN(C[C@H](O)COc3cccc4[nH]ccc34)CC2)sc2ccc(F)cc12"
  assay.readout: "Ki"
  reported.result: 5.17
- chemical.structure: "O[C@H](COc1cccc2[nH]ccc12)CN1CCC(c2cc3cc(F)ccc3s2)CC1"
  assay.readout: "Ki"
  reported.result: 29.4
- chemical.structure: "COc1cccc2sc(C3CCN(C[C@H](O)COc4cccc5[nH]c(C)cc45)CC3)cc12"
  assay.readout: "Ki"
  reported.result: 4.83
- chemical.structure: "Cc1ccc2cc(C3CCN(C[C@H](O)COc4cccc5[nH]ccc45)CC3)sc2c1"
  assay.readout: "Ki"
  reported.result: 12.7
- chemical.structure: "Oc1cccc2cc(C3CCN(C[C@H](O)COc4cccc5[nH]ccc45)CC3)sc12"
  assay.readout: "Ki"
  reported.result: 7.12
- chemical.structure: "O[C@H](COc1cccc2[nH]ccc12)CN1CCC(c2cc3c(F)cccc3s2)CC1"
  assay.readout: "Ki"
  reported.result: 6.79
- chemical.structure: "O[C@H](COc1cccc2[nH]ccc12)CN1CCC(c2cc3c(Cl)cccc3s2)CC1"
  assay.readout: "Ki"
  reported.result: 9.12
- chemical.structure: "Cc1cc2c(OC[C@@H](O)CN3CCC(c4cc5c(C)cccc5s4)CC3)cccc2[nH]1"
  assay.readout: "Ki"
  reported.result: 10.4

[A] Cc1cc2c(OC[C@@H](O)CN3CCC(c4cc5ccc(F)cc5s4)CC3)cccc2[nH]1
[B] O[C@H](COc1cccc2[nH]ccc12)CN1CCC(c2cc3cc(Cl)ccc3s2)CC1
Kindly identify which of A and B has the larger recorded Ki value. Give the label under which the chosen entry appears.
A

[a] O[C@H](COc1cccc2[nH]ccc12)CN1CCC(c2cc3ccccc3s2)CC1
[b] O[C@H](COc1cccc2[nH]ccc12)CN1CCC(c2cc3ccc(F)cc3s2)CC1
Short answer wanted: higher Ki, a or b ? Return value: the label identifying the chosen record.
b

[A] Oc1ccc2cc(C3CCN(C[C@H](O)COc4cccc5[nH]ccc45)CC3)sc2c1
[B] Cc1cccc2sc(C3CCN(C[C@H](O)COc4cccc5[nH]ccc45)CC3)cc12
Param metric = Ki; output whichever of A , B has the minimum value. Your choice should be expressed through its label.
A

[I] O[C@H](COc1cccc2[nH]ccc12)CN1CCC(c2cc3ccc(Cl)cc3s2)CC1
[II] Cc1cc2c(OC[C@@H](O)CN3CCC(c4cc5c(F)cccc5s4)CC3)cccc2[nH]1
Between the two listed entries I and II , which has its Ki at the higher number? Kindly give the label for the entry you pick.
II

----------
- system.name: 5-hydroxytryptamine receptor 1A (Homo sapiens) (UniProt P08908)
- Sequence (P08908 whole entry): as above
- test.summary: Maximal response as a result of 5-hydroxytryptamine 1A receptor-mediated stimulation of [35S]GTP-gamma-S, binding
- Format: functional
assay.readout: Emax (%)

- chemical.structure: "Cc1cc2c(OC[C@@H](O)CN3CCC(c4cc5ccc(F)cc5s4)CC3)cccc2[nH]1"
  units.symbol: "%"
  reported.result: 12.6
- chemical.structure: "O[C@H](COc1cccc2[nH]ccc12)CN1CCC(c2cc3cc(F)ccc3s2)CC1"
  units.symbol: "%"
  reported.result: 13.2
- chemical.structure: "Cc1cc2c(OC[C@@H](O)CN3CCC(c4cc5cc(F)ccc5s4)CC3)cccc2[nH]1"
  units.symbol: "%"
  reported.result: 12.1
- chemical.structure: "Cc1cc(C)c2cc(C3CCN(C[C@H](O)COc4cccc5[nH]c(C)cc45)CC3)sc2c1"
  units.symbol: "%"
  reported.result: 13.4
- chemical.structure: "COc1cccc2sc(C3CCN(C[C@H](O)COc4cccc5[nH]c(C)cc45)CC3)cc12"
  units.symbol: "%"
  reported.result: 9.05
- chemical.structure: "O[C@H](COc1cccc2[nH]ccc12)CN1CCC(c2cc3cc(Cl)ccc3s2)CC1"
  units.symbol: "%"
  reported.result: 11
- chemical.structure: "Cc1ccc2cc(C3CCN(C[C@H](O)COc4cccc5[nH]ccc45)CC3)sc2c1"
  units.symbol: "%"
  reported.result: 13.8
- chemical.structure: "Oc1cccc2cc(C3CCN(C[C@H](O)COc4cccc5[nH]ccc45)CC3)sc12"
  units.symbol: "%"
  reported.result: 12.5
- chemical.structure: "O[C@H](COc1cccc2[nH]ccc12)CN1CCC(c2cc3c(F)cccc3s2)CC1"
  units.symbol: "%"
  reported.result: 11.2
- chemical.structure: "Cc1cccc2sc(C3CCN(C[C@H](O)COc4cccc5[nH]ccc45)CC3)cc12"
  units.symbol: "%"
  reported.result: 17
- chemical.structure: "Cc1cc2c(OC[C@@H](O)CN3CCC(c4cc5c(C)cccc5s4)CC3)cccc2[nH]1"
  units.symbol: "%"
  reported.result: 12.1
- chemical.structure: "O[C@H](COc1cccc2[nH]ccc12)CN1CCC(c2cc3ccccc3s2)CC1"
  units.symbol: "%"
  reported.result: 12.3
